Source listed as ChEMBL document CHEMBL1201862.

GI50 by entry:
system: Hs-578T; experiment: NCI tumour cell line growth inhibition, 48 h
Active and inactive are the calls of the source. Rule as the data show it: active = GI50 up to about 1.1 µM and inactive = higher.
OBSERVED_PROPERTY: GI50

# COMPOUND, OBSERVED_PROPERTY, RESULT
records = [
    ("O=c1c2cc(I)ccc2nc(SCc2n[nH]c(=S)o2)n1Cc1ccccc1", "GI50", "20.6 µM (inactive)"),
    ("CCOC(=O)C(C#N)C1=CC(=O)C(=O)c2ccc(OC)cc21 (stereo not drawn)", "GI50", "18.1 µM (inactive)"),
    ("COc1ccc(N2C(=O)CC(=O)N(C(=O)CCCCCCCCC(=O)N3C(=O)CC(=O)N(c4ccc(OC)cc4)C3=S)C2=S)cc1", "GI50", "> 100 µM (inactive)"),
    ("COC(=O)C(=O)C(C(=O)C(=O)Nc1nnc(S)[nH]1)c1nc2ccc([N+](=O)[O-])cc2nc1O (stereo not drawn)", "GI50", "> 100 µM (inactive)"),
    ("Oc1ccc2ccccc2c1OCc1nnc(CCCCCCCCc2nnc(COc3c(O)ccc4ccccc34)n2Nc2ccccc2)n1Nc1ccccc1", "GI50", "18.2 µM (inactive)"),
    ("O=C(Nc1ccc2nc(O)n[n+]([O-])c2c1)C(F)(F)F", "GI50", "> 100 µM (inactive)"),
    ("O=C(/C=C/C=C/c1ccccc1)c1ccccc1", "GI50", "20 µM (inactive)"),
    ("CC1(C)OCC(C2OC(C)(C)OC2[C@H]2O[C@@]3(O)[C@H]4[C@H](C=CC[C@@H]42)[C@@H](OCc2ccccc2)[C@H](OCc2ccccc2)[C@H]3OCc2ccccc2)O1 (stereo partly drawn)", "GI50", "> 100 µM (inactive)"),
]

---

system: NCI-H226; assay: NCI tumour cell line growth inhibition, 48 h
Calls of active or inactive are those of the source. No stated cut-off is given here; in the data, active = GI50 up to about 1.1 µM and inactive = higher.
Labels: active, inactive

# COMPOUND, GROUP_LABEL
data = [
    ("CSC1(C(=O)O)C2CCC3C2CCC31 (stereo not given)", "inactive"),
    ("C(/c1ccco1)=c1/nc(-c2ccccc2)n2c1nc1ccccc12", "inactive"),
    ("COc1cc(C2SCC(=O)N2Cc2ccccc2)cc(OC)c1OC (stereo not given)", "inactive"),
    ("O=C(/C=C/C=C/c1ccccc1)c1ccccc1", "inactive"),
    ("CCC1(CCSC(=N)N)C(=O)NC(=O)NC1=O", "inactive"),
    ("COC(C/C(=C/CO[Si](C(C)C)(C(C)C)C(C)C)C(=O)N(C(=O)OC(C)(C)C)c1ccccc1I)OC", "inactive"),
    ("CC(=O)C(=O)NC1/C=C(C)\\C=C/C(O)C/C=C(C)\\C=C/C(O)CC2OC(=O)C1(C)C(=O)C2C (stereo not given)", "inactive"),
    ("C/C(=N/NC(=S)N1CCCCC1)c1cccc(/C(C)=N\\NC(=S)N2CCCCC2)n1", "inactive"),
    ("CC[C@@]1(O)C(=O)OCc2c1cc1n(c2=O)Cc2c-1nc1ccccc1c2/C=N\\NC(=O)C(N)Cc1c[nH]cn1 (stereo not given in full)", "active"),
    ("Nn1c(-c2ccccc2)n[nH]c1=O", "inactive"),
]

---

test system: K562; assay: NCI tumour cell line growth inhibition, 48 h
Activity calls are given as the source filed them. Rule as the data show it: active = GI50 up to about 1.1 µM and inactive = higher.
Labels: YES (active), NO (inactive)

# COMPOUND, GROUP_LABEL
measured = [
    ("CC(C)(Cl)C(Br)CCC(Br)(CCl)C(Cl)CBr (centres undefined)", "NO"),
    ("C=C1CC(OC)(C(OC)C(=O)N(C)[C@H]2OCO[C@H]3C2O[C@H](C[C@@H](COC)OC)C(C)(C)C3OC)O[C@H](C)[C@@H]1C (some centres undefined)", "NO"),
    ("COC(=O)C(=O)C(C(=O)OC)C(=O)C(=O)Nc1c(Cl)cc([N+](=O)[O-])cc1Cl (centres undefined)", "NO"),
    ("CC1=CC(=O)CC(C)(C)C1/C=C/C(C)=C/C=C/C(C)=C/C=C/C=C(C)/C=C/C=C(C)/C=C/C1=C(C)CC(O)CC1(C)C (centres undefined)", "YES"),
    ("O=[N+]([O-])C1(C2([N+](=O)[O-])CCCC2)CCCC1", "NO"),
    ("COc1cc(C2SCC(=O)N2Cc2ccccc2)cc(OC)c1OC (centres undefined)", "NO"),
    ("O=C(/C=C/C=C/c1ccccc1)c1ccccc1", "NO"),
    ("COC(=O)c1cc2c3c(c(C(C)=O)c(OC)c2[nH]1)NCC3", "NO"),
    ("CC(C)(C=O)CC(C#N)/C(=N\\NC(N)=O)C(=O)Nc1ccccc1C(N)=O (centres undefined)", "NO"),
    ("CCOC(=O)CCC(NC(=O)c1ccc(OCc2nc3cc(C(F)(F)F)ccc3nc2-c2ccccc2)cc1)C(=O)OCC (centres undefined)", "NO"),
    ("N[C@H](C(=O)O)[C@@H](Cl)CC(=O)O", "NO"),
    ("CCc1ccc(Nc2cc(=O)[nH]c(SCc3ccccc3)n2)cc1", "NO"),
    ("C(=C1/CCCCC([n+]2ccccc2)=N1)/c1ccccc1", "NO"),
    ("COc1cc(C2c3cc4c(cc3OC(N3CCOCC3)C2C)OCO4)ccc1O (centres undefined)", "NO"),
    ("CC(OC(C)(C)C)[C@H](NC(=O)OCc1ccccc1)C(=O)NC(OCc1ccccc1)[C@H]1COC(C)(C)O1 (some centres undefined)", "NO"),
    ("O=C(NCCCCCCNC(=O)n1cc(F)c(=O)[nH]c1=O)NCCCOCCOCCOCCOCCOCCOCCOCCOCCOCCOCCOCCOCCOCCOCCOCCOCCOCCOCCOCCOCCOCCCNC(=O)C(O)C(O)C(OC1OC(CO)C(O)C(O)C1O)C(O)CO (centres undefined)", "NO"),
    ("O=C(C(=O)N1CCc2ccccc21)c1c[nH]c2ccccc12", "NO"),
    ("COc1ccc2c(c1)CCN1CCc3ccccc3CC21 (centres undefined)", "NO"),
    ("Cc1nc2[nH]ccn2c(=O)c1CCO", "NO"),
]

---

test system: HOP-92; assay: NCI tumour cell line growth inhibition, 48 h
Active and inactive are the calls of the source. Cut-off read from the data, not from the text of the source: active = GI50 up to about 1.1 µM and inactive = higher.

# MOLECULE, TARGET_UNDER_TEST, GI50
records = [
    ("Oc1ccc2ccccc2c1OCc1nnc(CCCCCCCCc2nnc(COc3c(O)ccc4ccccc34)n2Nc2ccccc2)n1Nc1ccccc1", "HOP-92", "17.2 µM (inactive)"),
    ("CC1=CC(=O)CC(C)(C)C1/C=C/C(C)=C/C=C/C(C)=C/C=C/C=C(C)/C=C/C=C(C)/C=C/C1=C(C)CC(O)CC1(C)C (stereo not given)", "HOP-92", "27.3 µM (inactive)"),
    ("NC1(P(=O)(O)O)CCCCC1", "HOP-92", "> 100 µM (inactive)"),
    ("C#CC1(OC(C)=O)CCC2C3CC=C4C=C(OC(C)=O)CCC4(C)C3CCC21C (stereo not given)", "HOP-92", "16.1 µM (inactive)"),
    ("CC12CCC(C(=O)O1)C(C)(C)O2 (stereo not given)", "HOP-92", "> 100 µM (inactive)"),
]

---

test system: MOLT-4; test: NCI tumour cell line growth inhibition, 48 h
Calls of active or inactive are those of the source. Rule as the data show it: active = GI50 up to about 1.1 µM and inactive = higher.
GI50 by entry:
OBSERVED_PROPERTY: GI50

# COMPOUND, OBSERVED_PROPERTY, RESULT
records = [
    ("Cc1nc2c(nc1C)C(=O)c1cc(O)ccc1C2=O", "GI50", "> 66.7 µM (inactive)"),
    ("CC1CN(CCO)CC(C)O1 (stereo not given)", "GI50", "> 100 µM (inactive)"),
    ("O[C@H]1[C@H]2c3cc4c(cc3CN3CCC(=C[C@@H]1O)[C@H]23)OCO4 [LYCORINE]", "GI50", "1.29 µM (inactive)"),
    ("Cc1cc(/N=N/c2c(O)ccc3ccccc23)ccc1/N=N/c1cccc([N+](C)(C)C)c1", "GI50", "10.8 µM (inactive)"),
    ("CCCc1nc2c(n1CC)C(=O)c1ccccc1C2=O", "GI50", "17 µM (inactive)"),
    ("CCOC(=O)C1(Cc2ccccc2)C=CN(C(=O)c2ccccc2)C=C1", "GI50", "20.6 µM (inactive)"),
    ("COc1cc(Cl)cc(O)c(=O)c1OC", "GI50", "15.8 µM (inactive)"),
    ("O=C(OCc1ccccc1)c1nc2ccccc2n1S(=O)(=O)c1ccccc1", "GI50", "> 100 µM (inactive)"),
    ("CC1(C)CC(=O)C=C(NC(=O)c2ccccc2)C1", "GI50", "> 100 µM (inactive)"),
    ("C=CCOC(=O)NC1C(OC(C)[C@@H](NC(=O)OCc2ccccc2)C(=O)OC(C)(C)C)OC(COC(C)=O)C(OC(C)=O)C1OC(C)=O (stereo not given in full)", "GI50", "25.8 µM (inactive)"),
]
